Each entry below carries its recorded Mean % WT Binding.
target: human CD33 Q251A (human, UniProt P20138 18-364); assay: alanine scan, flow cytometry, HEK293-T;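 also: antibody binding to each alanine-substituted CD33 mutant expressed transiently in HEK293-T, read as fluorescence minus background, mean of duplicates, relative to wild-type CD33 set as 100%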
Sequence (P20138 18-364 Q251A limits assumed): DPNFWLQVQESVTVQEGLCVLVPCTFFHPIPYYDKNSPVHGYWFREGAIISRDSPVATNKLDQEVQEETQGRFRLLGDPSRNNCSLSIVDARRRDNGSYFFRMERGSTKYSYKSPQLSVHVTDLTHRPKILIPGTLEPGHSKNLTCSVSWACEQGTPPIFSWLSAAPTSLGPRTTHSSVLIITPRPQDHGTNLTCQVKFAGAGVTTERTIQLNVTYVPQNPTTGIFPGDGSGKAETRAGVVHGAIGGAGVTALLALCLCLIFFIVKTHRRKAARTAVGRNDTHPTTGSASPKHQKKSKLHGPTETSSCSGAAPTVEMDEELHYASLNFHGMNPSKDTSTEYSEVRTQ
parameter: Mean % WT Binding

- Refmab #3 (antibody, V domains shown, The alanine scan used IgG or Fab) VH: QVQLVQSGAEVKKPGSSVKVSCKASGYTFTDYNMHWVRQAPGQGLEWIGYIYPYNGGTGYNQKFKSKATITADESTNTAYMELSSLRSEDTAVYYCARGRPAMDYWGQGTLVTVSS VL: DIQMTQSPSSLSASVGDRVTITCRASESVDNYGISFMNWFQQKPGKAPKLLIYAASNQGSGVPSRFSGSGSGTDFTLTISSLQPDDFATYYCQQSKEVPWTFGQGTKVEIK: 93.3 % WT binding
- Refmab #1 (antibody, V domains shown, The alanine scan used IgG or Fab; also called hP67.6) VH: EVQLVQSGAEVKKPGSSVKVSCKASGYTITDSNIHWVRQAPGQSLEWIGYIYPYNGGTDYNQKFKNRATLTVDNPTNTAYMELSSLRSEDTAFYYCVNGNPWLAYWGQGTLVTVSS VL: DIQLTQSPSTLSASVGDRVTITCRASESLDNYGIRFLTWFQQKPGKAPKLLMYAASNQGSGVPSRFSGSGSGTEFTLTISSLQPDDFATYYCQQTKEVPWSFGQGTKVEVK: 98.8 % WT binding
- Refmab #4 (antibody, V domains shown, The alanine scan used IgG or Fab) VH: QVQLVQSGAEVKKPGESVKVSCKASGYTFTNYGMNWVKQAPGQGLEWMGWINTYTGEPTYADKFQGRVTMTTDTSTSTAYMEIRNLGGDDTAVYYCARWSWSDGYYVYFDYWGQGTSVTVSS VL: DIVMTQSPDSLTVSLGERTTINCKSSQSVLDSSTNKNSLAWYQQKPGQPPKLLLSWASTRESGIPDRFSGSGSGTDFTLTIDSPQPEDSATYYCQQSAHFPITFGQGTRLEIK: 97.5 % WT binding
- Refmab #2 (antibody, V domains shown, The alanine scan used IgG or Fab) VH: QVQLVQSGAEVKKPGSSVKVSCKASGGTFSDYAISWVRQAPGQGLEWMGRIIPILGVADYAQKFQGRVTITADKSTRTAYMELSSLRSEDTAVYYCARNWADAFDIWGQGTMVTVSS VL: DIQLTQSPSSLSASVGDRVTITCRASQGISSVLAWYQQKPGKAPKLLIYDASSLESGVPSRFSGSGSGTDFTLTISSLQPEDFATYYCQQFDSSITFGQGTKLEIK: 117 % WT binding

Reference for the values: patent US20260242735A1
